Below is a list of entries, each paired with its recorded MFI value.
# tested_target: T1, hFcRn on hFcRn-expressing HEK293 cells (human, UniProt P55899 24-365; P61769 21-119)
# T1 construct: whole, on cells; also called hFcRn HEK293
# T1 sequence (P55899 24-365 limits assumed, chain 1 of 2): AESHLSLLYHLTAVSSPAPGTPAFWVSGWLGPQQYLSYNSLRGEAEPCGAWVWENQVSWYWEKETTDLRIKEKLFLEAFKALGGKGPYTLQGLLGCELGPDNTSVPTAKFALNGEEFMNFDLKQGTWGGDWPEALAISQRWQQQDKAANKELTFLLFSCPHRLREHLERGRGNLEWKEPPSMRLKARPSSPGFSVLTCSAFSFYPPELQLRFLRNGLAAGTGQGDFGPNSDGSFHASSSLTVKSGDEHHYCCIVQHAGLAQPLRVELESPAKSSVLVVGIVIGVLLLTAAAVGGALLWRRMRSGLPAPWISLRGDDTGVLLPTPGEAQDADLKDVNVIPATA
# T1 sequence (P61769 21-119 limits assumed, chain 2 of 2): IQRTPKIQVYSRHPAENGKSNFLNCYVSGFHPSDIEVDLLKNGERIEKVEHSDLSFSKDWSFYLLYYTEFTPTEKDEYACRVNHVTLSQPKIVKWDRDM
# assay_protocol: FACS on hFcRn HEK293 cells, 10 nM antibody, pH 7.4
Just the number in MFI, nothing appended.

# count of solved cases: 3
* HL161AN variant No. 17 (LC:N25Q, HC:C32S Q82S) (antibody, human IgG1, V domains shown, Variable domains only) VL: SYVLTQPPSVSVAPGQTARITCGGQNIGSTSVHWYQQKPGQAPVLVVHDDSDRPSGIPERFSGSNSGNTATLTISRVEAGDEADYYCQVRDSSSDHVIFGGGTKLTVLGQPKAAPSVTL VH: EVQLLESGGGLVQPGGSLRLSCAASEFTFGSSVMTWVRQAPGKGLEWVSVISGSGGSTYYADSVKGRFTISRDNSKNTLYLSMNSLRAEDTAVYYCAKTPWWLRSPFFDYWGQGTLVTVSS | 6750
* HL161AN variant No. 16 (LC:N25Q, HC:Q82E) (antibody, human IgG1, V domains shown, Variable domains only) VL: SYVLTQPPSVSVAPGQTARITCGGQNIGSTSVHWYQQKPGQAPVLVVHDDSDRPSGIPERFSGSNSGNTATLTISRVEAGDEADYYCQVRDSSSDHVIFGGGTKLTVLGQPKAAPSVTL VH: EVQLLESGGGLVQPGGSLRLSCAASEFTFGSCVMTWVRQAPGKGLEWVSVISGSGGSTYYADSVKGRFTISRDNSKNTLYLEMNSLRAEDTAVYYCAKTPWWLRSPFFDYWGQGTLVTVSS | 6210
* HL161AN variant No. 1 (LC:N25S, HC:C32S) (antibody, V domains shown, also called HL161ANS; #1 (HL161ANS)) VL: SYVLTQPPSVSVAPGQTARITCGGSNIGSTSVHWYQQKPGQAPVLVVHDDSDRPSGIPERFSGSNSGNTATLTISRVEAGDEADYYCQVRDSSSDHVIFGGGTKLTVLGQPKAAPSVTL VH: EVQLLESGGGLVQPGGSLRLSCAASEFTFGSSVMTWVRQAPGKGLEWVSVISGSGGSTYYADSVKGRFTISRDNSKNTLYLQMNSLRAEDTAVYYCAKTPWWLRSPFFDYWGQGTLVTVSS | 6460

Query: Identify the reported MFI for the following entry. HL161AN (antibody, human IgG1, V domains shown, also called HL161AN RS) VL: SYVLTQPPSVSVAPGQTARITCGGNNIGSTSVHWYQQKPGQAPVLVVHDDSDRPSGIPERFSGSNSGNTATLTISRVEAGDEADYYCQVRDSSSDHVIFGGGTKLTVLGQPKAAPSVTL VH: EVQLLESGGGLVQPGGSLRLSCAASEFTFGSCVMTWVRQAPGKGLEWVSVISGSGGSTYYADSVKGRFTISRDNSKNTLYLQMNSLRAEDTAVYYCAKTPWWLRSPFFDYWGQGTLVTVSS
Reply: 6150

Query: Identify the reported MFI for the following entry. HL161AN variant No. 9 (LC:N25S, HC:C32Y Q82S) (antibody, human IgG1, V domains shown, Variable domains only) VL: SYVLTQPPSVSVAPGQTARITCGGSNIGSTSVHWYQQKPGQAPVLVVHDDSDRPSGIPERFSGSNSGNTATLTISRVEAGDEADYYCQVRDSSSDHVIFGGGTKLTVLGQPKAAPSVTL VH: EVQLLESGGGLVQPGGSLRLSCAASEFTFGSYVMTWVRQAPGKGLEWVSVISGSGGSTYYADSVKGRFTISRDNSKNTLYLSMNSLRAEDTAVYYCAKTPWWLRSPFFDYWGQGTLVTVSS
Reply: 6750

Query: Identify the reported MFI for the following entry. HL161AN variant No. 15 (LC:N25Q, HC:Q82T) (antibody, human IgG1, V domains shown, Variable domains only) VL: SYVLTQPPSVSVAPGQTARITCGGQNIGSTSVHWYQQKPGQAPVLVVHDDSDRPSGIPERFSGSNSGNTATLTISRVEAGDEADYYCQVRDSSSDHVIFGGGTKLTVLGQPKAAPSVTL VH: EVQLLESGGGLVQPGGSLRLSCAASEFTFGSCVMTWVRQAPGKGLEWVSVISGSGGSTYYADSVKGRFTISRDNSKNTLYLTMNSLRAEDTAVYYCAKTPWWLRSPFFDYWGQGTLVTVSS
Reply: 6540

Query: Identify the reported MFI for the following entry. HL161AN variant No. 7 (LC:N25S, HC:C32S Q82T) (antibody, human IgG1, V domains shown, Variable domains only) VL: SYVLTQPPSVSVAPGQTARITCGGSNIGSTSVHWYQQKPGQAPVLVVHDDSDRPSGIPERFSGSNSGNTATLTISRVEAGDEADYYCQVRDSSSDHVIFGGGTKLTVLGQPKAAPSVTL VH: EVQLLESGGGLVQPGGSLRLSCAASEFTFGSSVMTWVRQAPGKGLEWVSVISGSGGSTYYADSVKGRFTISRDNSKNTLYLTMNSLRAEDTAVYYCAKTPWWLRSPFFDYWGQGTLVTVSS
Reply: 6620

Query: Identify the reported MFI for the following entry. HL161AN variant No. 4 (LC:N25S, HC:Q82T) (antibody, human IgG1, V domains shown, Variable domains only) VL: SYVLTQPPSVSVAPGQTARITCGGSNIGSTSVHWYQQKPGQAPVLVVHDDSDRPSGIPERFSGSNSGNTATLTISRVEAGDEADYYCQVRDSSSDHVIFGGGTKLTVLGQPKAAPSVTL VH: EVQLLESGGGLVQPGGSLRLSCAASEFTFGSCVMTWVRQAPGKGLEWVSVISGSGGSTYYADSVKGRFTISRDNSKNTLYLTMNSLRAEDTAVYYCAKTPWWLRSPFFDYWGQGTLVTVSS
Reply: 6300
